- Tested on: Escherichia coli TOP10;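 also: peptides expressed intracellularly from a pBAD plasmid library in pooled LB shake-flask culture, induced with 0.3% L-arabinose, DNA abundance read by NGS, three biological replicates, DESeq2 with apeglm shrinkage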
- assay_text: shrunken log2 fold change of peptide-encoding DNA abundance (4.5 h post-induction vs induction); higher = less antimicrobial activity (less host growth inhibition)
- condition_context: time post-induction: 4.5 h; library: site-saturation at positions 5, 18, 19, 20
measured_endpoint: shrunken log2 fold change

Please review the following examples before continuing.
RRIRFRPPRLPRPRPRPDTVPRP = -0.0794
RRIRLRPPRLPRPRPRPKMCPRP = -0.0794
RRIRDRPPRLPRPRPRPEHLPRP = -0.00213

Go through the items and report each one's shrunken log2 fold change.
1. RRIRCRPPRLPRPRPRPTRDPRP
2. RRIRFRPPRLPRPRPRPGFLPRP
3. RRIRGRPPRLPRPRPRPSFPPRP
4. RRIRQRPPRLPRPRPRPKHRPRP
5. RRIRRRPPRLPRPRPRPLWCPRP
6. RRIRKRPPRLPRPRPRPMQAPRP
7. RRIRMRPPRLPRPRPRPYYPPRP

[0.104, -0.296, -0.0674, -0.0509, 0.186, 1.15, -0.159]
